# TARGET OR SYSTEM: UniProtKB P01116
# Sequence (P01116 whole entry): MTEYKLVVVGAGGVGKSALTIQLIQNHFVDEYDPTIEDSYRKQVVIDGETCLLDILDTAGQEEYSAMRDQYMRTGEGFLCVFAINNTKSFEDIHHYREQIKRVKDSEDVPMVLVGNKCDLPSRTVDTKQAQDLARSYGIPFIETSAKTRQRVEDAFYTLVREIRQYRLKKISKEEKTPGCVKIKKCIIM
# TEST PROTOCOL: Binding to KRAS by surface plasmon resonance (SPR), Single Cycle Kinetics
# EXPERIMENTAL CONDITIONS: SPR Single Cycle Kinetics, GDP-bound KRAS wild-type protein, 1:1 binding model; read-out: KRAS KD
*1 amine or outer side, *2 acyl side, *3 side chain or, on linkers, in order; H or OH if unused. Where a SMILES comes first, the peptide text is derived from it. Bridges are numbered along the chain shown (N, C = ends). [ ]: non-standard residue; d: D form. The star is where a group is joined. hPhe(3,5-F2-4-CF3) = N[C@@H](CCc1cc(F)c(C(F)(F)F)c(F)c1)C(=O)O; hPhe(3-Cl-4-CF3) = N[C@@H](CCc1ccc(C(F)(F)F)c(Cl)c1)C(=O)O; NPrPhe(4-CF3) = CCCN[C@@H](Cc1ccc(C(F)(F)F)cc1)C(=O)O; NMeGly(cPent) = CN[C@H](C(=O)O)C1CCCC1; Pro(4,4-F2) = O=C(O)[C@@H]1CC(F)(F)CN1; X44 = CC1(C)CN([*:1])[C@@H]1C(=O)[*:2]; X8 = C[C@@](N[*:1])(C(=O)[*:2])C1CC1; Gly(cPent) = N[C@H](C(=O)O)C1CCCC1; NMeD = CN[C@@H](CC(=O)O)C(=O)O; NMeL = CN[C@@H](CC(C)C)C(=O)O; Morpholide = C1CN(*)CCO1; NMeA = CN[C@@H](C)C(=O)O; Ac5c = NC1(C(=O)O)CCCC1; Aze = O=C(O)[C@@H]1CCN1; Sar = CNCC(=O)O
Please go through the items and note down their pKd.
pKd is defined as minus the log10 of a concentration measured in mol/L.

Record request: pKd value, item CCC[C@H]1C(=O)N[C@@H]([C@@H](C)CC)C(=O)N(C)CC(=O)N(C)[C@H]2C/C=C\CCN(C2=O)[C@@H](Cc2ccc(C(F)(F)F)cc2)C(=O)N(C)CC(=O)N[C@@H](CCc2ccc(C(F)(F)F)c(OC)c2)C(=O)N2CCCC[C@H]2C(=O)NC2(CC(C)(C)C2)C(=O)N(C)[C@@H](C(CC)CC)C(=O)N(C)[C@H](C(=O)N(C)C)CC(=O)N1C [PP2934]
8.70

Record request: pKd value, item CC[C@H](C)[C@@H]1NC(=O)[C@H](CC(C)C)N(C)C(=O)C[C@@H](C(=O)N2CCOCC2)N(C)C(=O)[C@H](C2CCCC2)N(C)C(=O)C2(CCCC2)NC(=O)[C@@H]2CCCN2C(=O)[C@H](CCc2cc(F)c(C(F)(F)F)c(F)c2)NC(=O)CN(C)C(=O)[C@H](Cc2ccc(C(F)(F)F)cc2)N2CCCC[C@@H](C2=O)N(C)C(=O)[C@@H]2CCCCN2C1=O [PP0548]
7.82

Record request: pKd value, item CCCN1C(=O)CN(C)C(=O)CN(C)C(=O)[C@H]([C@@H](C)CC)NC(=O)[C@H](CC(C)C)N(C)C(=O)C[C@@H](C(=O)N(C)C)NC(=O)[C@H](C2CCCC2)N(C)C(=O)C2(CCCC2)NC(=O)[C@@H]2CC(F)(F)CN2C(=O)[C@H](CCc2ccc(C(F)(F)F)c(Cl)c2)NC(=O)CN(C)C(=O)[C@@H]1Cc1ccc(C(F)(F)F)cc1 [PP0357] ([NMeL]I[Sar][Sar][NPrPhe(4-CF3)][Sar][hPhe(3-Cl-4-CF3)][Pro(4,4-F2)][Ac5c][NMeGly(cPent)]D-NMe2; lactam N-11)
9.40

Record request: pKd value, item CC[C@H](C)[C@@H]1NC(=O)[C@H](CC(C)C)N(C)C(=O)C[C@@H](C(=O)N2CCOCC2)N(C)C(=O)[C@H](C2CCCC2)NC(=O)C2(CCCC2)NC(=O)[C@@H]2CCCN2C(=O)[C@H](CCc2cc(F)c(C(F)(F)F)c(F)c2)NC(=O)CN(C)C(=O)[C@H](Cc2ccc(C(F)(F)F)cc2)N2CCCC[C@@H](C2=O)N(C)C(=O)CN(C)C1=O [PP0540]
7.77

Record request: pKd value, item CCCN1C(=O)CN(C)C(=O)CN(C)C(=O)[C@H]([C@@H](C)CC)NC(=O)[C@H](CC(C)C)N(C)C(=O)C[C@@H](C(=O)N(C)C)N(C)C(=O)[C@H](C2CCCC2)N(C)C(=O)[C@](C)(C2CC2)NC(=O)[C@@H]2CCCN2C(=O)[C@H](CCc2cc(F)c(C(F)(F)F)c(F)c2)NC(=O)CN(C)C(=O)[C@@H]1Cc1ccc(C(F)(F)F)cc1 [PP0734] ([NMeL]I[Sar][Sar][NPrPhe(4-CF3)][Sar][hPhe(3,5-F2-4-CF3)]P[X8][NMeGly(cPent)][NMeD]-NMe2; lactam N-11)
9.42

Record request: pKd value, item CCCN1C(=O)[C@@H]2CCN2C(=O)[C@H](C)N(C)C(=O)[C@H](C2CCCC2)NC(=O)[C@H](CC(C)C)N(C)C(=O)C[C@@H](C(=O)N2CCOCC2)N(C)C(=O)[C@H](C2CCCC2)N(C)C(=O)C2(CCCC2)NC(=O)[C@@H]2CCCN2C(=O)[C@H](CCc2ccc(C(F)(F)F)c(Cl)c2)NC(=O)CN(C)C(=O)[C@@H]1Cc1ccc(C(F)(F)F)cc1 [PP0272] ([NMeL][Gly(cPent)][NMeA][Aze][NPrPhe(4-CF3)][Sar][hPhe(3-Cl-4-CF3)]P[Ac5c][NMeGly(cPent)][NMeD]-Morpholide; lactam N-11)
9.77

Record request: pKd value, item CCC(CC)[C@H]1C(=O)N(C)[C@H](C(=O)N(C)C)CC(=O)N(C)[C@@H](COC)C(=O)N[C@@H]([C@@H](C)CC)C(=O)N(C)CC(=O)N(C)[C@H]2C/C=C\CCN(C2=O)[C@@H](Cc2ccc(C(F)(F)F)cc2)C(=O)N(C)CC(=O)N[C@@H](CCc2ccc(Cl)c(Cl)c2)C(=O)N2C[C@H](OC3CCCC3)C[C@H]2C(=O)NC2(CC(C)(C)C2)C(=O)N1C [PP2648]
9.07

Record request: pKd value, item CCCN1C(=O)CN(C)C(=O)[C@H]2N(CC2(C)C)C(=O)[C@H]([C@@H](C)CC)NC(=O)[C@H](CC(C)C)N(C)C(=O)C[C@@H](C(=O)N2CCOCC2)N(C)C(=O)[C@H](C2CCCC2)N(C)C(=O)C2(CCCC2)NC(=O)[C@@H]2CCCN2C(=O)[C@H](CCc2ccc(C(F)(F)F)c(Cl)c2)NC(=O)CN(C)C(=O)[C@@H]1Cc1ccc(C(F)(F)F)cc1 [PP0256] ([NMeL]I[X44][Sar][NPrPhe(4-CF3)][Sar][hPhe(3-Cl-4-CF3)]P[Ac5c][NMeGly(cPent)][NMeD]-Morpholide; lactam N-11)
9.00

Record request: pKd value, item CC[C@H](C)[C@@H]1NC(=O)[C@H](CC(C)C)N(C)C(=O)C[C@@H](C(=O)N2CCOCC2)N(C)C(=O)[C@H](C2CCCC2)N(C)C(=O)C2(CCCC2)NC(=O)[C@@H]2CCCN2C(=O)[C@H](CCc2cc(F)c(C(F)(F)F)c(F)c2)NC(=O)CN(C)C(=O)[C@H](Cc2ccc(C(F)(F)F)cc2)N2CCCCC[C@@H](C2=O)N(C)C(=O)[C@@H]2CCN2C1=O [PP0484]
8.49

Record request: pKd value, item CC[C@H](C)[C@@H]1NC(=O)[C@H](CC(C)C)NC(=O)C[C@@H](C(=O)N2CCOCC2)N(C)C(=O)[C@H](C2CCCC2)N(C)C(=O)C2(CCCC2)NC(=O)[C@@H]2CCCN2C(=O)[C@H](CCc2cc(F)c(C(F)(F)F)c(F)c2)NC(=O)CN(C)C(=O)[C@H](Cc2ccc(C(F)(F)F)cc2)N2CCCCC[C@@H](C2=O)N(C)C(=O)CN(C)C1=O [PP0516]
8.00

----------
# Tested on: human lung cancer strain NCI-H441;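 note: cell proliferation inhibition after four days measured by CellTiter-Glo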
# EXPERIMENTAL CONDITIONS: read-out: NCI-H441 IC50; NCI-H441 cell proliferation, 4 days, CellTiter-Glo
Where a SMILES comes first, the peptide text is derived from it. Bridges are numbered along the chain shown (N, C = ends). [ ]: non-standard residue; d: D form. The star is where a group is joined. hPhe(3-Cl-4-CF3) = N[C@@H](CCc1ccc(C(F)(F)F)c(Cl)c1)C(=O)O; NPrPhe(4-CF3) = CCCN[C@@H](Cc1ccc(C(F)(F)F)cc1)C(=O)O; NMeGly(cPent) = CN[C@H](C(=O)O)C1CCCC1; NMeD = CN[C@@H](CC(=O)O)C(=O)O; NMeL = CN[C@@H](CC(C)C)C(=O)O; NMeNva = CCC[C@H](NC)C(=O)O; Morpholide = C1CN(*)CCO1; Ac4c = NC1(C(=O)O)CCC1; NPrGly = CCCNCC(=O)O; NEtG = CCNCC(=O)O; Sar = CNCC(=O)O
Please go through the items and note down their IC50.
# value in nM; strip the unit string

Query for human lung cancer strain NCI-H441: what IC50 does the record show for `CCO[C@@H]1C[C@H]2C(=O)NC3(CCC3)C(=O)N(C)[C@@H](C3CCCC3)C(=O)N(C)[C@H](C(=O)N(CC)CC)CC(=O)N(C)[C@@H](CC(C)C)C(=O)N[C@@H]([C@@H](C)CC)C(=O)N(C)CC(=O)N(C)[C@H]3C/C=C\CCN(C3=O)[C@@H](Cc3ccc(C)cc3)C(=O)N(C)CC(=O)N[C@@H](CCc3ccc(C(F)(F)F)c(OC)c3)C(=O)N2C1` ?
19.2

Query for human lung cancer strain NCI-H441: what IC50 does the record show for CCCN1C(=O)CN(CC)C(=O)CN(C)C(=O)[C@H]([C@@H](C)CC)NC(=O)[C@H](CC(C)C)N(C)C(=O)C[C@@H](C(=O)N2CCOCC2)N(C)C(=O)[C@H](C2CCCC2)N(C)C(=O)C2(CCC2)NC(=O)[C@@H]2CCCN2C(=O)[C@H](CCc2ccc(C(F)(F)F)c(Cl)c2)NC(=O)CN(C)C(=O)[C@@H]1Cc1ccc(C(F)(F)F)cc1 [PP1948] ([NMeL]I[Sar][NEtG][NPrPhe(4-CF3)][Sar][hPhe(3-Cl-4-CF3)]P[Ac4c][NMeGly(cPent)][NMeD]-Morpholide; lactam N-11) ?
16.2

Query for human lung cancer strain NCI-H441: what IC50 does the record show for CCC[C@H]1C(=O)N[C@@H]([C@@H](C)CC)C(=O)N(C)CC(=O)N(CCC)CC(=O)N(CCC)[C@@H](Cc2ccc(C(F)(F)F)cc2)C(=O)N(C)CC(=O)N[C@@H](CCc2ccc(C(F)(F)F)c(Cl)c2)C(=O)N2CCC[C@H]2C(=O)NC2(CCC2)C(=O)N(C)[C@@H](C2CCCC2)C(=O)N(C)[C@H](C(=O)N2CCOCC2)CC(=O)N1C [PP1949] ([NMeNva]I[Sar][NPrGly][NPrPhe(4-CF3)][Sar][hPhe(3-Cl-4-CF3)]P[Ac4c][NMeGly(cPent)][NMeD]-Morpholide; lactam N-11) ?
9.3

Query for human lung cancer strain NCI-H441: what IC50 does the record show for CCO[C@@H]1C[C@H]2C(=O)NC3(CC(C)(C)C3)C(=O)N(C)[C@@H](C(CC)CC)C(=O)N(C)C(CC)CC(=O)N(C)[C@@H](CC)C(=O)N[C@@H]([C@@H](C)CC)C(=O)N(C)CC(=O)N(C)[C@H]3C/C=C\CCN(C3=O)[C@@H](Cc3ccc(C(F)(F)F)cc3)C(=O)N(C)CC(=O)N[C@@H](CCc3cc(F)c(C(F)(F)F)c(F)c3)C(=O)N2C1 (stereo partly shown) ?
28.1
